Would you kindly list z-score for each of these compounds?
Test: growth of efflux-deficient E. coli DRC39 – strain DRC39, OD650, 24 h, E. coli filamentation inducers, primary screen (AID 1178);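 also: growth measured as culture turbidity by optical density at 650 nm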
Conditions: E. coli DRC39 acrAB, higher = more signal, called active from +8 up or from −8 down
Calls of active or inactive are those of the source.

Please review the following examples before continuing.
structure.notation	z-score
[N-]=[N+]=NCc1ccccc1[C@@H]1OC(c2ccc(OCCCO)cc2)=N[C@]1(CCS(=O)(=O)c1ccccc1)C(N)=O	0.0745 (inactive)
COC(=O)c1c(CC[C@@H](CO)NC(=O)N[C@H](Cc2ccccc2)Cn2cc(-c3ccccn3)nn2)oc(C(C)=O)c1C(=O)OC	-0.347 (inactive)
NC(=O)[C@@H]1[C@H]2C(=O)O[C@H](c3ccccc3)[C@H](c3ccccc3)N2[C@H](c2ccc(O)cc2)[C@@]12C(=O)Nc1ccc(C#CC3=CCCCC3)cc12	-0.488 (inactive)

Please state z-score for every compound in the list that follows.
1. Cc1ccc(S[C@]2(C(=O)NCC(C)C)CC(=O)N(Cc3cc(C(F)(F)F)cc(C(F)(F)F)c3)[C@@H]2c2ccc(CO)cc2)cc1
2. CC(=O)Nc1cc(Br)ccc1C(=O)NCc1ccccc1
3. O=C(CS)NCCCCCNC(=O)[C@H]1C[C@H]2C(=O)NCC(=O)N2[C@H]1c1ccc(O)cc1
4. [N-]=[N+]=Nc1ccccc1C[C@@]1(C(=O)N2CCCCC2)N=C(c2ccc(OCCCO)cc2)O[C@@H]1c1ccccc1

["-0.995 (inactive)", "0.0344 (inactive)", "0.268 (inactive)", "1.38 (inactive)"]

* * *

System: XIP peptide (Xip251-270)
Assay: compounds binding XIP fragment 251-270 – biochemical, small-molecule microarray, fluorescence 635/667 nm, 0.5 µg/mL protein, primary screen (AID 1183)
Settings: fluorescence 635 nm, higher = more signal
Rule: composite z-score of 0.5 or more gives 1.0; anything lower gives 0.0.

molecule	label
COc1cc(CO)cc(I)c1O[C@H]1C=C(C(=O)NCCO)C[C@@H](NC[C@@H]2CCCO2)[C@@H]1O	1.0
COc1ccc(NN2C(C(O)c3ccc(N(C)C)cc3)C=CC3C(=O)N(C4CCCCC4)C(=O)C32)cc1 (configuration not stated)	1.0
CCCNC(=O)[C@@H]1c2ccccc2C(=O)N(Cc2ccccc2OC)[C@H]1c1ccc(CO)cc1	1.0
Cc1ccc([C@H]2C(C(=O)O)=CCN2S(=O)(=O)c2ccc(C)cc2)cc1	1.0

# check: composite z-score of COCCOC(=O)N1C(=O)[C@@]2(c3cc(C#Cc4ccc(OC)cc4)ccc31)[C@H](c1ccc(O)cc1)N1[C@H](c3ccccc3)[C@H](c3ccccc3)OC(=O)[C@H]1[C@@H]2C(=O)Nc1nc2ccccc2s1 is greater than or equal to 0.5
1.0

State whether the measured composite z-score reaches 0.5, counting equality as reaching it, for COCC(=C=CC[C@H](O)c1ccccc1OCCO)CCO
0.0

Determine whether this molecule has composite z-score no lower than 0.5: [N-]=[N+]=Nc1ccccc1C[C@]1(C(=O)N2CCCCC2)COC(c2ccc(OCCCO)cc2)=N1
0.0

// inclusive: composite z-score at least 0.5? input: CC(C)NC(=O)[C@@]1(Cc2ccccc2I)c2ccccc2C(=O)N(Cc2ccccc2Cl)[C@H]1c1ccc(CO)cc1
1.0

Please check the record O=C1NC(=O)C2C1C=CC(C(O)c1ccc(I)cc1)N2Nc1ccccn1 (configuration not stated) and state if its composite z-score is at or above 0.5.
0.0

Determine whether this molecule has composite z-score no lower than 0.5: CN1C(=O)C2C=CC(C(O)c3c(F)cccc3Cl)N(NC(=O)OC(C)(C)C)C2C1=O (configuration not stated)
1.0

Dear colleague, could you confirm whether COc1cc(OC)c(C(O)C2C=CC3C(=O)NC(=O)C3N2Nc2ccccn2)cc1Br (configuration not stated) has composite z-score at or above 0.5?
0.0

Item CCOC(=O)C[C@H]1[C@H](OC(=O)c2ccc(-c3ccccc3)cc2)[C@@H](NC(=O)c2ccccc2)c2cc(OCCCO)ccc2N1C(=O)c1ccc2ccccc2n1 with composite z-score of 0.5 or above?
0.0

Hello, I need to know if COCCOC(=O)N1C(=O)[C@@]2(c3cc(C#CC4(O)CCCCCC4)ccc31)[C@H](C(=O)Nc1nc3ccccc3s1)[C@H]1C(=O)O[C@H](c3ccccc3)[C@H](c3ccccc3)N1[C@@H]2c1ccccc1OCCO has measured composite z-score not below 0.5. Thanks!
1.0

Does CC(c1ccccc1)C(O)C1C=CC2C(=O)N(c3ccccc3)C(=O)C2N1Nc1ccccc1 (configuration not stated) have a reported composite z-score of at least 0.5?
1.0

Please check the record CCCCN1CC=CC23O[C@@H]4C=CCOC(=O)[C@@H]4[C@H]2C(=O)N(CCCCCCO)[C@@H]3C1=O (some centres not stated) and state if its composite z-score is at or above 0.5.
0.0

Does the reported composite z-score for COCCOC(=O)N1C(=O)[C@@]2(c3cc(C#CCCO)ccc31)[C@H](c1ccc(O)cc1)N1[C@H](c3ccccc3)[C@H](c3ccccc3)OC(=O)[C@H]1[C@@H]2C(=O)N1CCN(c2ncccn2)CC1 fall at or above the 0.5 mark?
1.0

Quick check, composite z-score >= 0.5? C=C(CCCC)/C(=C/C[C@H](OC(C)=O)c1ccc(OCCO)cc1)c1cnc2ccccc2c1
1.0

* * *

Assay: compound effects on multiple myeloma cell viability – MM1S, calcein-AM fluorescence, 48 h, basal, profiling panel (AID 1165);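 also: viability of MM1S multiple myeloma cells under basal unstimulated conditions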
Conditions: higher = more signal
Assign z-score to each entry below.
Numbers only.

Worked set:
compound	measurement.kind	recorded.value
C[N+](C)(C)CCCCCCNC(=O)[C@H]1C[C@H]2C(=O)N[C@@H](Cc3ccccc3)C(=O)N2[C@H]1c1cccc(OCCO)c1	z-score	0.245
C#CCN1[C@@H](Cc2ccc(O)cc2)C(=O)O[C@H](Cc2ccccc2)[C@@H]1/C=C/C1CC1	z-score	-3.22
CC(C)(C)OC(=O)CC[C@@]1(C(=O)N2CCCCC2)N=C(c2ccc(OCCCO)cc2)O[C@@H]1c1ccccc1	z-score	-1.99

Dear reader, for each entry below, please note its z-score.
1. COc1ccc(CCNC(=O)[C@@]2(c3ccc([N+](=O)[O-])cc3)CC(=O)N(CC34CC5CC(CC(C5)C3)C4)[C@@H]2c2ccc(CO)cc2I)cc1
2. COc1ccc(NC(=O)O[C@H]2[C@H](OC(=O)c3cc4ccccc4[nH]3)[C@@H](OC(=O)c3cc4ccccc4[nH]3)[C@@H](OC)O[C@@H]2CO)cc1
3. CCOC(=O)C1=CC[C@@H](c2ccc(C(F)(F)F)cc2)N(S(=O)(=O)c2ccc(C)cc2)[C@H]1c1ccccc1
4. COc1cc(OC)c(C(O)C2C=CC3C(=O)NC(=O)C3N2Nc2ccccn2)cc1Br (stereo unspecified)
5. O=C1C2C=CC(C(O)c3ccc(-c4ccccc4)s3)N(Nc3ccccc3)C2C(=O)N1c1ccccc1 (stereo unspecified)
6. Cc1c(NC(=O)/C(C#N)=C/c2cccc([N+](=O)[O-])c2)c(=O)n(-c2ccccc2)n1C

-2.44
-0.699
-2.36
-0.459
-0.338
0.943

// for each compound in input: emit z-score
1. CCCNC(=O)[C@@]1(Sc2ccc(C)cc2)CC(=O)N(Cc2ccccc2C(F)(F)F)[C@@H]1c1ccc(CO)cc1I
2. CC(c1ccccc1)C(O)C1C=CC2C(=O)N(c3ccccc3)C(=O)C2N1Nc1ccccc1 (stereo unspecified)
3. CCCCCCCCCCC(O)C1C=CC2C(=O)NC(=O)C2N1Nc1ccc(Cl)cc1Cl (stereo unspecified)
4. COc1ccccc1CN1C(=O)c2ccccc2[C@@]2(Cc3ccccc3N(CCCN(C)C)C2=O)[C@@H]1c1ccc(CO)cc1
5. CCOC(=O)C[C@H]1[C@H](OC(=O)c2cc3ccccc3oc2=O)[C@@H](NC(=O)CC(C)C)c2cc(OCCCO)ccc2N1C(=O)c1ccccc1
6. O=C(CS)NCCCCCNC(=O)[C@H]1C[C@H]2C(=O)NCC(=O)N2[C@H]1c1ccc(O)cc1

[-2.3, -0.476, -3.8, 0.229, 0.117, 0.0607]

Hi there! I need z-score for each item below, if you can.
1. O=C1O[C@H](c2ccccc2)[C@H](c2ccccc2)N2[C@H]1[C@@H](C(=O)NC[C@H](O)c1ccccc1)[C@]1(C(=O)Nc3ccccc31)[C@H]2c1ccc(O)cc1
2. CC(C)[C@@H](C(=O)O)n1cc(C2(O)CCCCC2)nn1
3. O=C(CS)NCCCCCNC(=O)[C@H]1C[C@H]2C(=O)NCC(=O)N2[C@H]1c1cccc(OCCO)c1
4. O=C1O[C@@H](c2ccccc2)[C@@H](c2ccccc2)N2[C@@H](c3ccccc3OCCO)[C@]3(C(=O)Nc4ccccc43)[C@@H](C(=O)O)[C@H]12
5. CC(C)[Si](C#C[Si](C(C)C)(C(C)C)C(C)C)(O[C@H](C)c1cn(Cc2ccccc2)nn1)C(C)C
6. [N-]=[N+]=Nc1ccccc1C[C@]1(C(=O)NCC(O)CO)N=C(c2ccc(OCCCO)cc2)O[C@H]1c1ccccc1 (stereo partly specified)
7. O=C1OCCC=C[C@H]2OC34C=CCN(Cn5nnc6ccccc65)C(=O)[C@H]3N(CCO)C(=O)[C@@H]4C12 (stereo partly specified)

-2.03
0.248
0.304
-2.64
0.636
-1.04
0.897

Please supply z-score for each of the following items, keeping them in order.
1. C=C(CCCC)/C(=C/C[C@@H](OC(C)=O)c1cccc(OCCO)c1)c1cnc2ccccc2c1
2. C=CCNC(=O)[C@H]1[C@@H]2C(=O)O[C@@H](c3ccccc3)[C@@H](c3ccccc3)N2[C@@H](c2ccc(O)cc2)[C@]12C(=O)Nc1ccc(C#CCCO)cc12
3. O=C(CS)NCCCCCNC(=O)[C@@H]1C[C@@H]2C(=O)NCC(=O)N2[C@@H]1c1ccc(O)cc1
4. CC(C)OC(=O)C=C1C[C@@H](c2cccc(Cl)c2)O[C@@H](c2cccc(Cl)c2)O1
5. Cc1ccc([C@H]2C(C(=O)O)=CCN2S(=O)(=O)c2ccc(C)cc2)cc1
6. [N-]=[N+]=Nc1ccccc1C[C@]1(C(=O)N2CCCCC2)COC(c2ccc(OCCCO)cc2)=N1
7. COc1cc2c(cc1O)C=[N+](Cc1cc3c(cc1Br)OCO3)CC2
8. CCCC(=O)N(CCc1c[nH]c2ccccc12)[C@@H]1CC(C(=O)NCCO)=C[C@H](Oc2c(I)cc(CO)cc2OC)[C@H]1O

[-1.47, 0.994, -0.403, -1.97, -0.458, -3.52, 0.343, 0.704]

Consider the compound CCCCN1CC=CC23O[C@@H]4/C=C\CCCOC(=O)C4[C@H]2C(=O)N(CCCO)[C@@H]3C1=O (stereo partly specified) and give its recorded z-score.
-0.614
